# ASSAY_EXPLANATION: Clearance in Sprague-Dawley rat at 1 mg/kg, iv
# Type: ADME, organism-based
# Set-up: dose 1 mg/kg, route intravenous
# EXPERIMENTAL_CONDITIONS: in vivo
MEASURED_METRIC: clearance (mL/min/kg)

query: What value of clearance has been recorded for this entry: Cc1ccc(S(=O)(=O)NC(=O)N2CCC(N3CCC(Oc4ccc(Cl)cc4C)CC3)CC2)cc1
result: 27

query: What value of clearance has been recorded for this entry: Cc1c(Cl)ccc(OC2CCN(C3CCN(S(=O)(=O)NC(=O)c4ccccc4)CC3)CC2)c1Cl
result: 17

query: What value of clearance has been recorded for this entry: Cc1ccc(S(=O)(=O)NC(=O)N2CCC(N3CCC(Oc4ccc(Cl)c(Cl)c4)CC3)CC2)cc1
result: 20

----------
# ASSAY_EXPLANATION: Volume of distribution at steady state in Sprague-Dawley rat at 1 mg/kg, iv
# Format: ADME, organism-based
# Set-up: dose 1 mg/kg, route intravenous
# EXPERIMENTAL_CONDITIONS: in vivo, read-out: Vdss
MEASURED_METRIC: Vd (L/kg)

query: What value of Vd has been recorded for this entry: Cc1ccc(S(=O)(=O)NC(=O)N2CCC(N3CCC(Oc4ccc(Cl)cc4C)CC3)CC2)cc1
result: 1.4

query: What value of Vd has been recorded for this entry: Cc1c(Cl)ccc(OC2CCN(C3CCN(C(=O)NS(=O)(=O)c4ccc(N(C)C)cc4)CC3)CC2)c1Cl
result: 2.3

query: What value of Vd has been recorded for this entry: Cc1ccccc1S(=O)(=O)NC(=O)N1CCC(N2CCC(Oc3ccc(Cl)c(Cl)c3)CC2)CC1
result: 2.7

query: What value of Vd has been recorded for this entry: O=C(NS(=O)(=O)N1CCC(N2CCC(Oc3ccc(Cl)c(Cl)c3)CC2)CC1)c1ccccc1
result: 0.5

P. Cc1ccc(S(=O)(=O)NC(=O)N2CCC(N3CCC(Oc4ccc(Cl)c(Cl)c4)CC3)CC2)cc1
Q. Cc1c(Cl)ccc(OC2CCN(C3CCN(S(=O)(=O)NC(=O)c4ccccc4)CC3)CC2)c1Cl
query: Kindly compare P with Q and tell me which has the lower Vd figure. Pick one and reply with its label.
result: Q

----------
# TESTED_TARGET: UniProtKB Q12809
# ASSAY_EXPLANATION: Inhibition of human ERG expressed in CHO cells by IonworksHT assay
# Format: cell-based
MEASURED_METRIC: pIC50
# pIC50 is unitless: minus log10 of the molar concentration; print number only

query: For UniProtKB Q12809, provide pIC50 of Cc1ccc(S(=O)(=O)N(C)C(=O)N2CCC(N3CCC(Oc4ccc(Cl)c(Cl)c4)CC3)CC2)cc1 please.
result: 6.50

----------
pIC50: −log10 of the molar value.
Listed here: molecules with reported pIC50 for Voltage-gated inwardly rectifying potassium channel KCNH2 (Homo sapiens).

Completed entries (count: 2):
query: What value of pIC50 has been recorded for this entry: Cc1ccccc1S(=O)(=O)NC(=O)N1CCC(N2CCC(Oc3ccc(Cl)c(Cl)c3)CC2)CC1
result: < 5.00

query: What value of pIC50 has been recorded for this entry: O=C(O)c1cccc(C(=O)N2CCC(N3CCC(Oc4ccc(Cl)c(Cl)c4)CC3)CC2)c1
result: < 5.00

Lab note: next molecule to report on.
query: What value of pIC50 has been recorded for this entry: Cc1ccc(S(=O)(=O)NC(=O)N2CCC(N3CCC(Oc4ccc(Cl)cc4C)CC3)CC2)cc1
result: < 5.00
